Kindly supply the reported log fold change Tl+ flux values for the records listed here.
- Tested on: R275C/beta1
- test: modulators of BK channel variants, profiling panel, selectivity assay, cell-based, U2OS BacMam, thallium flux, beta subunits (AID 1259406);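 further: initial slope of Thallos dye fluorescence rise after thallium is added; log ratio against the mean of 0.3% DMSO vehicle wells on the same plate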
- setup conditions: at 30 µM
API note: the answer field is a bare number with no unit suffix.

Report log fold change Tl+ flux for COc1c(N2CCNC(C)C2)c(F)cc2c(=O)c(C(=O)O)cn(C3CC3)c12 (stereo not given)
0.0168

For the compound NNCCc1ccccc1 , give its reported log fold change Tl+ flux.
0.00562

Give reported log fold change Tl+ flux value for CC12CC3CC(C)(C1)CC(N)(C3)C2
-0.0595

Name the recorded log fold change Tl+ flux of the item OC(CCN1CCCCC1)(c1ccccc1)C1CCCCC1 (stereo not given) in your answer.
0.105

Please give the documented log fold change Tl+ flux of CC1Cc2ccccc2N1NC(=O)c1ccc(Cl)c(S(N)(=O)=O)c1 (stereo not given)
0.0126

State its log fold change Tl+ flux: Cn1c(=O)c2[nH]cnc2n(C)c1=O
0.0503

Please supply the value of reported log fold change Tl+ flux for the item NS(=O)(=O)c1cc2c(cc1C(F)(F)F)NCNS2(=O)=O
-0.0725

Please indicate log fold change Tl+ flux recorded for O=C1[C@H](CC[C@H](O)c2ccc(F)cc2)[C@@H](c2ccc(O)cc2)N1c1ccc(F)cc1
0.416

Tell me measured log fold change Tl+ flux for NS(=O)(=O)c1cc2c(cc1Cl)NC=NS2(=O)=O please.
0.0235

Output measured log fold change Tl+ flux for this item: CC(C)Cc1ccc(C(C)C(=O)O)cc1 (stereo not given)
-0.00083

Fill in reported log fold change Tl+ flux for this entry: O=C(CCCN1CC=C(n2c(=O)[nH]c3ccccc32)CC1)c1ccc(F)cc1
0.0837

Determine its reported log fold change Tl+ flux: NC12CC3CC(CC(C3)C1)C2
0.0102

Give me measured log fold change Tl+ flux, please, for this compound: Cc1nc2ccccn2c(=O)c1CCN1CCC(C(=O)c2ccc(F)cc2)CC1
-0.0266

Dear colleague, please send me the reported log fold change Tl+ flux for C#C[C@]1(O)CC[C@H]2[C@@H]3CCC4=CC(=O)CC[C@@H]4[C@H]3CC[C@@]21CC when you can.
0.00999

Specify reported log fold change Tl+ flux for the compound shown: Cc1ccc(-c2cc(C(F)(F)F)nn2-c2ccc(S(N)(=O)=O)cc2)cc1
0.012

State its log fold change Tl+ flux: OCCN1CCN(CCCN2c3ccccc3Sc3ccc(C(F)(F)F)cc32)CC1
0.409

Answer with the recorded log fold change Tl+ flux for the compound listed here: O=c1[nH]cc(F)c(=O)[nH]1
0.0262

Kindly indicate its recorded log fold change Tl+ flux. Item: CN[C@@H]1[C@H](O)[C@H](NC)[C@H]2O[C@@]3(O)C(=O)C[C@@H](C)O[C@H]3O[C@@H]2[C@H]1O
0.0857

Please supply the value of reported log fold change Tl+ flux for the item Cc1cn([C@H]2C[C@H](N=[N+]=[N-])[C@@H](CO)O2)c(=O)[nH]c1=O
-0.0324

State, in one line, measured log fold change Tl+ flux of c1ccc(CC2=NCCN2)cc1
0.0322

Determine from records and report log fold change Tl+ flux for C=C(CC)C(=O)c1ccc(OCC(=O)O)c(Cl)c1Cl
0.0596

Quick one: give measured log fold change Tl+ flux for CC1=C(/C=C/C(C)=C/C=C/C(C)=C/C(=O)O)C(C)(C)CCC1
0.0531

State, in one line, measured log fold change Tl+ flux of CC1COc2c(N3CCN(C)CC3)c(F)cc3c(=O)c(C(=O)O)cn1c23 (stereo not given)
-0.02

Return the recorded log fold change Tl+ flux value; entry: CC(=O)CCCCn1c(=O)c2c(ncn2C)n(C)c1=O
-0.0218

Identify log fold change Tl+ flux associated with the compound COc1ccc([C@@H]2Sc3ccccc3N(CCN(C)C)C(=O)[C@@H]2OC(C)=O)cc1
0.0836

Note log fold change Tl+ flux for the compound shown: OCCN1C[C@H](O)[C@@H](O)[C@H](O)[C@H]1CO
-0.0736

Given CC(COc1ccccc1)N(CCCl)Cc1ccccc1 (stereo not given) , respond with its log fold change Tl+ flux.
0.0364

Return log fold change Tl+ flux for the following compound: CN(C)CCCN1c2ccccc2Sc2ccc(Cl)cc21
0.272

Output log fold change Tl+ flux of CCC(=O)O[C@]1(C(=O)CCl)[C@@H](C)C[C@H]2[C@@H]3CCC4=CC(=O)C=C[C@]4(C)[C@@]3(F)[C@@H](O)C[C@@]21C
0.13

For the compound CCN(CC)CCNC(=O)c1ccc(N)cc1 , give its reported log fold change Tl+ flux.
-0.0679

Hello, please tell me recorded log fold change Tl+ flux for this one: CC(C)C(=O)Nc1ccc([N+](=O)[O-])c(C(F)(F)F)c1
-0.0165

Return log fold change Tl+ flux (reported value) for this compound: NS(=O)(=O)c1cc(C2(O)NC(=O)c3ccccc32)ccc1Cl (stereo not given)
-0.0254

Tell me log fold change Tl+ flux reported for COC1=CC(=O)C[C@@H](C)[C@]12Oc1c(Cl)c(OC)cc(OC)c1C2=O
0.0145

Look up and state reported log fold change Tl+ flux for Nc1nc(N)c2nc(-c3ccccc3)c(N)nc2n1
-0.0258

Give the measured log fold change Tl+ flux for CC(=O)OCC[N+](C)(C)C
-0.00581

Retrieve log fold change Tl+ flux measured for CCOC(=O)C1=C(C)NC(C)=C(C(=O)OC)C1c1cccc([N+](=O)[O-])c1 (stereo not given) and print it.
0.00401

Indicate its recorded log fold change Tl+ flux; the compound in question is O=C(O)c1cc(=O)c2c(OCC(O)COc3cccc4oc(C(=O)O)cc(=O)c34)cccc2o1
-0.0241

Answer with the recorded log fold change Tl+ flux for the compound listed here: CCCCC1=NC2(CCCC2)C(=O)N1Cc1ccc(-c2ccccc2-c2nn[nH]n2)cc1
0.109

Item CN(C)CCc1c[nH]c2ccc(C[C@H]3COC(=O)N3)cc12 : provide log fold change Tl+ flux
0.0275

Recall and state the measured log fold change Tl+ flux for CCOC(=O)[C@H](CCc1ccccc1)N[C@H]1CCc2ccccc2N(CC(=O)O)C1=O .
-0.0262

Give the measured log fold change Tl+ flux for CCc1nc(N)nc(N)c1-c1ccc(Cl)cc1
-0.00379

Tell us which log fold change Tl+ flux value is on record for NC(N)=NC(=O)c1nc(Cl)c(N)nc1N
0.0417

Return log fold change Tl+ flux for the following compound: C#C[C@]1(O)CC[C@H]2[C@@H]3CCC4=Cc5oncc5C[C@]4(C)[C@H]3CC[C@@]21C
0.048

Provide only the value of recorded log fold change Tl+ flux for NS(=O)(=O)c1cc2c(cc1C(F)(F)F)NC(Cc1ccccc1)NS2(=O)=O (stereo not given)
0.0248

Read the entry COc1ccc(Cl)cc1C(=O)NCCc1ccc(S(=O)(=O)NC(=O)NC2CCCCC2)cc1 and write its reported log fold change Tl+ flux.
0.142

Values were extracted from PubChem BioAssay.
